# Test system: HOP-92 NSCLC
# TEST: NCI-60 one-dose screen, 48 h
# CONDITION DESCRIPTION: 10 µM unless noted
About 83,000 compounds went through this panel and 20% of them were active in at least one assay; those are over-represented in the sample as a whole. Calls of active or inactive are those of the source. Rule for the calls: active = growth percent below 10; inactive = the rest.
Please state which outcome applies, choosing from active, inactive

Examples with answers:
| COMPOUND | ANSWER LABEL |
| --- | --- |
| Cc1ccc(N)cc1F | inactive |
| COc1cc(OC)c(/C=C/S(=O)(=O)Cc2ccc(OC)c(N)n2)c(OC)c1 | inactive |
| CSc1nc(NCCCNc2ccnc3cc(Cl)ccc23)cc(-c2ccccc2)n1 | inactive |
| C=C1C(=O)O[C@H]2[C@H]1CC/C(Cn1cc(Cn3ccc4cc(Cl)ccc43)nn1)=C\CC[C@@]1(C)O[C@@H]21 | active |
| CC#CC#Cc1cccc(=O)o1 | inactive |

Asked: Each compound tested received a call. Report the one for COc1ccc(C2c3ccc4ccccc4c3Oc3ncnc(N)c32)cc1 (stereo not drawn) .
Given back: inactive

Asked: Likewise for `Cc1cc(Nc2nc(N3CCOCC3)nc3ccccc23)n[nH]1` ?
Given back: inactive

Asked: Likewise for CCC(c1ccccc1)C(CC)c1ccc(O)c(O)c1 (stereo not drawn) ?
Given back: inactive
